Values from ChEMBL document CHEMBL3352103

- System: Neuronal acetylcholine receptor; alpha3/beta4 (Rattus norvegicus, UniProt P04757+P12392)
- Sequence (P04757 whole entry): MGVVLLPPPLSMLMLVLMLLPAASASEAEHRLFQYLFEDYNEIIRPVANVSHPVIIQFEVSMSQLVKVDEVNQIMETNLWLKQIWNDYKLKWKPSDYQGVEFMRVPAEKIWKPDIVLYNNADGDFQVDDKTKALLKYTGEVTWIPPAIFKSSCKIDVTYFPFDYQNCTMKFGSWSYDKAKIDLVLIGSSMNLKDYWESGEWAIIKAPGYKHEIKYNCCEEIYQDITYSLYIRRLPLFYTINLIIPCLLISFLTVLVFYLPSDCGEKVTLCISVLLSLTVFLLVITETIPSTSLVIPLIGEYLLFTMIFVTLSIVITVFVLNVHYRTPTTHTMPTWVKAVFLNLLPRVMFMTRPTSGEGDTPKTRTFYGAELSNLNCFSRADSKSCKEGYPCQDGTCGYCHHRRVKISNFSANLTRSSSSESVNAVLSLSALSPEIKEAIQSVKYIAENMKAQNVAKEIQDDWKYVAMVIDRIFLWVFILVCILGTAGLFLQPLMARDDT
- Sequence (P12392 whole entry): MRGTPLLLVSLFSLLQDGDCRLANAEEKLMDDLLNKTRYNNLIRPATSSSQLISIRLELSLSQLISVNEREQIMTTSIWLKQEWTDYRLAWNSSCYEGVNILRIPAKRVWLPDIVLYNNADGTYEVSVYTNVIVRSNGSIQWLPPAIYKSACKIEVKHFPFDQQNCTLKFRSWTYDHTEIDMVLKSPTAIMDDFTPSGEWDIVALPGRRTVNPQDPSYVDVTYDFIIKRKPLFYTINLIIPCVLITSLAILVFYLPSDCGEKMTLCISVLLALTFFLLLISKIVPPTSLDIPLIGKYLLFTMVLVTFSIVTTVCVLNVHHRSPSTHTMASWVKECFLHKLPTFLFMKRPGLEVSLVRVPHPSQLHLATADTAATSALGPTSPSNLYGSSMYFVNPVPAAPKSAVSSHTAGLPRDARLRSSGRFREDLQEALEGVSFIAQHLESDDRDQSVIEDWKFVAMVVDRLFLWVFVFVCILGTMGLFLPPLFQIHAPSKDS
- Method summary: Displacement of [3H]EB from rat nAChR alpha3beta4 expressed in HEK293 cell membranes by liquid scintillation counting
- Measurement conditions: read-out: Ki
Assign Ki to each entry below.

Ask: Item under review: `c1ccc(-c2ccc(-n3nnnc3CCCCN3CCOCC3)cc2)cc1` . Reported Ki?
Reply: > 1000 µM

Ask: Item under review: `O=C(CCCCN1CCOCC1)Nc1ccc(-c2ccccc2)cc1` . Reported Ki?
Reply: > 10 µM

Ask: Item under review: `O=C(CCCCN1CCOCC1)Nc1ccc(-c2cccnc2)cc1` . Reported Ki?
Reply: > 10 µM

Ask: Item under review: `O=C(NCCCCN1CCOCC1)c1ccc(-c2cccnc2)cc1` . Reported Ki?
Reply: > 10 µM

List Ki for every entry below, keeping the order given.
1. c1ccc(-c2ccc(-c3nnnn3CCCCN3CCOCC3)cc2)cc1
2. c1cncc(-c2ccc(-c3nnnn3CCCCN3CCOCC3)cc2)c1
3. O=C(NCCCCN1CCOCC1)c1ccc(-c2ccccc2)cc1

Reply:
["> 100 µM", "> 1000 µM", "> 10 µM"]
